Data credit: PubChem BioAssay (NCI)

test system: SF-295 CNS; test: NCI tumour cell line growth inhibition, 48 h
The compounds listed here are annotated with their TGI.
measurement kind: TGI

[
  {
    "compound": "CCC(CO)Nc1nc(NCc2ccccc2)c2ncn(C(C)C)c2n1 (stereo unspecified)",
    "assay value": "50.9 µM"
  },
  {
    "compound": "Cc1ccc(-c2csc(NC(=O)CN3CCN(c4cc5c(cc4F)c(=O)c(C(=O)O)cn5C4CC4)CC3)n2)cc1",
    "assay value": "13.9 µM"
  },
  {
    "compound": "CC[O-].CC[O-].O=S(=O)([O-])c1ccc([O-])c2ncccc12.O=S(=O)([O-])c1ccc([O-])c2ncccc12.[Ti+4]",
    "assay value": "> 100 µM"
  },
  {
    "compound": "O=c1nc2c(c(-c3ccc(Br)cc3)[nH]1)COC/C2=C\\c1ccc(Br)cc1",
    "assay value": "> 50 µM"
  },
  {
    "compound": "COc1ccc2nc(/C(N)=C\\C#N)ccc2c1",
    "assay value": "> 100 µM"
  },
  {
    "compound": "N#CC1(O)CCCCCCCCCCC1",
    "assay value": "> 100 µM"
  },
  {
    "compound": "O=C(O)c1ccc2c(c1)CCCC(c1ccc(Cl)cc1Cl)=C2c1ccc(O[C@H]2CCN(CCCF)C2)cc1",
    "assay value": "20.5 µM"
  },
  {
    "compound": "COC(=O)/C(=N\\NC(C)(C)C)C(C(=O)C(=O)Nc1cc(C)ccc1C)c1nc2ccccc2[nH]c1=O (stereo unspecified)",
    "assay value": "> 100 µM"
  },
  {
    "compound": "CN(C)CC1CCC/C1=N\\O (stereo unspecified)",
    "assay value": "> 100 µM"
  },
  {
    "compound": "CN(C)CCNC(=O)c1cc(Cl)cc2ccc(-c3ccccc3)nc12",
    "assay value": "15.4 µM"
  },
  {
    "compound": "O=C(CCc1cc(O)cc(O)c1)NCCCNC(=O)CCc1cc(O)cc(O)c1",
    "assay value": "> 100 µM"
  },
  {
    "compound": "COC(=O)C1=C(C(=O)OC)SC(=CC#CC=C2SC(C(=O)OC)=C(C(=O)OC)S2)S1",
    "assay value": "11.8 µM"
  },
  {
    "compound": "O=C(O)C1CCCCC1C(=O)O.[NH-]C1CCC1.[NH2-].[Pt+2] (stereo unspecified)",
    "assay value": "> 100 µM"
  },
  {
    "compound": "CCC1=C(C(C)=O)[C@@H]2CCCCC[C@@H](C(=O)OC)C2C1=O (stereo partly specified)",
    "assay value": "> 100 µM"
  },
  {
    "compound": "CCCCC1=C(C(=O)N2CCOCC2)C2(OCCO2)C1=O",
    "assay value": "> 100 µM"
  },
  {
    "compound": "COc1cc2cc(C(=O)N3C[C@H](CCl)c4c3cc(N)c3ccccc43)[nH]c2c(OC)c1OC",
    "assay value": "> 50 µM"
  },
  {
    "compound": "CCCCOc1ccc(OCCCCCCCCCC[N+](C)(C)C)cc1",
    "assay value": "19.9 µM"
  },
  {
    "compound": "CCC[n+]1cc2cc(OC)c(OC)cc2c2c1-c1cc3c(cc1C2)OCO3",
    "assay value": "26.6 µM"
  },
  {
    "compound": "O=c1cc(-c2ccncc2)[nH]c2cc3c(cc12)OCO3",
    "assay value": "> 100 µM"
  },
  {
    "compound": "C1=C2C3=[N+](CCCCC3)CC2Cc2ccsc21 (stereo unspecified)",
    "assay value": "> 100 µM"
  },
  {
    "compound": "Cc1c(C(=O)NCCN2CCOCC2)cn2ncnc(Oc3ccc(NC(=O)Nc4ccc(Cl)c(C(F)(F)F)c4)cc3)c12",
    "assay value": "3.34 µM"
  }
]
